Each recorded value in this set is attributed to PubChem BioAssay AID1347416.

# measurement_notes: qHTS Validation assay for Inhibitors of Plasmodium falciparum Dd2 growth in vitro; further: nearly all actives have a fitted effect of over 70% in size; further: potency means the concentration at half of the fitted maximal effect
# experimental_parameters: P. falciparum Dd2 in RBCs, SYBR Green growth, 72 h; series mostly up to 28.7 µM
The whole screen tested about 4,100 compounds, of which about 1,600 (39%) were called active. Inconclusive results (about 25%) are left out. Some of the results follow.
parameter: Potency

CCC(=O)N(C1=C(NC(C)C)C(=O)c2ccccc2C1=O)C(C)C
2370 nM (active)
COc1ccc(-c2nc3sc(CCNC(=O)c4ccc(C(C)(C)C)cc4)c(C)n3n2)cc1
2110 nM (active)
CN(C)CC(CCC(CN(C)C)C(O)(c1ccccc1)c1ccccc1)C(O)(c1ccccc1)c1ccccc1 (stereo not drawn)
2110 nM (active)
Cc1noc(-c2cn(C3CCN(C(=O)c4ccc(C)s4)C3)nn2)n1 (stereo not drawn)
inactive
CCN(c1ccccc1)S(=O)(=O)c1c(-c2ccc(C)cc2)csc1C(=O)OC
inactive
CCOC(=O)c1cccc(NC(=O)Cn2ncc3c4ccccc4n(Cc4ccccc4)c3c2=O)c1
inactive
OC(Cc1ccncc1)(c1ccccc1)c1ccccc1
inactive
CCCCn1c2c(c(=N)c3c1CCC3)CCC2
8410 nM (active)
CCN(CC)C(=O)C(C)[C@@H]1CC[C@@]2(C)CC[C@H](NC(=O)c3cnccn3)[C@@H](C)[C@@H]2[C@H]1O (stereo partly drawn)
inactive
CNC(=O)[C@H]1C[C@H](Oc2ccccc2)CN1Cc1c[nH]c2ccc(OC)cc12
inactive
c1ccc2c(NCCc3c[nH]c4ccccc34)c3ccccc3nc2c1
1880 nM (active)
COC1CCOC2(CCN(C(=O)CCn3nc(C)cc3C)CC2)C1 (stereo not drawn)
inactive
CCCS(=O)(=O)N1CC(=O)N(c2cccc(F)c2)C(C)(C(=O)NC2CCCCCC2)C1 (stereo not drawn)
inactive
Cc1nccn1CC(=O)N1C[C@@H](COCC2CC2)[C@H](c2ccncc2)C1
inactive
C/C(=N\OCc1cccc(C(=O)O)c1)c1ccc(Cl)cc1
inactive
CC(=O)N1CCN([C@H]2[C@@H]3OC[C@@H](O3)[C@@H](NC(=O)Nc3ccc(F)cc3)[C@@H]2O)CC1
inactive
CCN(Cc1ccccc1)C(=O)CCC[C@@H]1[C@H]2CCCN3CCC[C@@H](CN1C(=O)c1ccccc1)[C@@H]23
13300 nM (active)
CCCc1ccc(C(=O)NC(=O)c2ccccc2O)cc1
1060 nM (active)
COc1cccc(CNC(=O)CN2C(=O)NC3(CCC(C(C)(C)C)CC3)C2=O)c1 (stereo not drawn)
inactive
COc1ccc2[nH]cc(CCNC(=O)C3(Cc4ccccc4)CCCCC(=O)N3)c2c1 (stereo not drawn)
5960 nM (active)
CCN(c1ccccc1)S(=O)(=O)c1cc(Br)cc2c1N(C(=O)C1CC1)CC2
2990 nM (active)
CC(=O)N1C[C@@H]2CCCN3CCC[C@@H]([C@H]23)[C@H]1CCCC(=O)Nc1ccccc1
inactive
COc1ccc(-c2cc3c(=O)n(CCNC(=O)c4ccc(N(C)C)cc4)ccn3n2)cc1
inactive
Cc1ccc(CC(=O)NCc2nnc3c(-c4nc(C(C)C)no4)cccn23)cc1
inactive
CN1C2CCC1/C(=C\c1ccccc1)C(=O)/C2=C\c1ccccc1
2110 nM (active)
COc1ccc(-c2nc3scc(CCNC(=O)c4cccc(Br)c4)n3n2)cc1
inactive
O=C(Nc1ccccc1)N[C@H]1[C@H](O)[C@@H](Oc2ccccc2)[C@@H]2OC[C@H]1O2
inactive
COc1ccc(C(C(=O)Nc2ccc(C(C)C)cc2)N(Cc2ccco2)C(=O)CC2NC(=O)NC2=O)cc1 (stereo not drawn)
6680 nM (active)
O[C@H]1[C@H](NCC2CCCCC2)[C@H]2CO[C@H](O2)[C@@H]1N1CCC(Cc2ccccc2)CC1
1370 nM (active)
CC(=O)N1CCN([C@H]2[C@@H]3OC[C@@H](O3)[C@@H](NC(=O)Nc3ccccc3)[C@@H]2O)CC1
inactive
COc1ccccc1N1CCN([C@H]2[C@@H]3OC[C@@H](O3)[C@@H](NCc3ccc(-c4ccccc4)cc3)[C@@H]2O)CC1
15000 nM (active)
CCCCN(C)CCCNC(=O)Cn1ncc2c3ccccc3n(Cc3cc(C)ccc3C)c2c1=O
750 nM (active)
Cc1ccc(CSC2=Nc3ccccc3C3=NC(CC(=O)NCc4ccco4)C(=O)N23)cc1 (stereo not drawn)
6680 nM (active)
CC1=C(C(=O)Nc2ccc(C)cc2C)C(c2cc(Br)ccc2F)n2ncc(C(=O)Nc3ccc(C)cc3)c2N1 (stereo not drawn)
1500 nM (active)
COc1ccccc1CNC(=O)[C@@H](C)C1CC[C@@]2(C)CC[C@H](NC(=O)c3cncnc3)[C@@H](C)[C@@H]2[C@H]1O (stereo partly drawn)
2370 nM (active)
O=C(NCCc1c[nH]c2ccccc12)c1cncc(Br)c1
inactive
CN(Cc1cccnc1)Cc1ccccc1C(F)(F)F
inactive
COc1ccccc1N1CCN([C@H]2[C@@H]3OC[C@@H](O3)[C@@H](N(CC3CC3)CC3CC3)[C@@H]2O)CC1
inactive
